Test system: SK-MEL-28 melanoma
Test: NCI-60 one-dose screen, 48 h (100 = growth as untreated, 0 = no growth, -100 = all killed)
Details: 10 µM unless noted
Method: Growth inhibition of the SK-MEL-28 human tumor cell line is measured as a screen for anti-cancer activity. Cells are grown in 96 well plates and exposed to the test compound for 48 hours. Compounds are tested at a single concentration, which is 10^-5 M for most compounds. The reported endpoint is percent growth (GI% or GIPRCNT), where numbers from 0 - 100% represent growth inhibition, and numbers from -100% - 0 represent cell death. For example, a value of 40 represents 60% growth inhibition. […]
Compounds without any hit were thinned out: in the full panel of roughly 83,000, 20% have a hit.
Consider the following compounds and their measured growth readings.
# number only, unit % dropped from output

1. OCC(Nc1ncnc2ccc(-c3cnc4cnccn34)cc12)c1ccccc1 (stereo not given) : 97.8
2. COc1ccc(OC)c(NC(=O)CCCCCCNC(=O)C(O)(O)C(F)(F)F)c1 : 35.6
3. COC(=O)c1ccc(NC2=C(Cl)C(=O)c3nc(C)ccc3C2=O)cc1 : 75.4
4. CC(C)(C)c1cc(NC(=O)Nc2ccc(-c3cn4c5c(sc4n3)CCc3cn(CCCN4CCCCC4)cc3-5)cc2)no1 : -89.8
5. CCCCCCOC(=O)c1cc(-c2ccc(F)cc2)nc2ccccc12 : 107

## Task Find the measured growth of CN1CCN(c2ccc(Nc3nc(NCCNS(=O)(=O)c4ccc5ccccc5c4)c4sccc4n3)cc2)CC1 with SK-MEL-28 melanoma as test system.
## Result 74.4

## Task Find the measured growth of Cn1c(SCC(=O)c2ccc(F)cc2)nc2ccccc2c1=O with SK-MEL-28 melanoma as test system.
## Result 105

## Task Find the measured growth of CCN(CC)c1ccc(/C=N/NC(=O)c2ccc(S(N)(=O)=O)cc2)c(O)c1 with SK-MEL-28 melanoma as test system.
## Result 20.6

## Task Find the measured growth of CN1c2ccccc2Sc2cc(/C=N/Nc3ccnc4cc(Cl)ccc34)ccc21 with SK-MEL-28 melanoma as test system.
## Result 103

## Task Find the measured growth of O=C(O)c1ccc(-n2c(=O)n(-c3cccc(C(F)(F)F)c3)c(=O)c3cc(-c4ccc(F)cc4F)ccc32)cc1 with SK-MEL-28 melanoma as test system.
## Result 26.1

###

tested on: ACHN renal; experiment: NCI-60 one-dose screen, 48 h (100 = growth as untreated, 0 = no growth, -100 = all killed); settings: 10 µM unless noted
This is part of a sample that, as a whole, favours compounds with a hit. Of some 83,000 tested, about 20% had one in any assay.
assay-endpoint: growth (%)
# number only, unit % dropped from output

Sample records with growth:
1) CC1(C)CC[C@]23CC[C@]4(C)[C@H](CC[C@@H]5[C@@]6(C)CC[C@H](NCO)C(C)(C)[C@@H]6CC[C@]54C)[C@H]2[C@H]1OC3 : 26.4
2) COC(=O)[C@@H](Cc1c[nH]c2ccccc12)NC(=O)CCCCOc1cc(O)c2c(=O)cc(-c3ccccc3)oc2c1 : 91.8
3) Cc1ccc(C(=O)Nc2ccc(CNCCN3CCNCC3)c(C(F)(F)F)c2)cc1C#Cc1cnc2cccnn12 : 57

## Task Given the compound COc1ccccc1/C=C/C(=O)c1nnn(-c2ccc(F)cc2)c1C , write its reported growth.
## Result 46.1

## Task Given the compound O=C(Nc1ccc(N=Cc2c(O)[nH]c3ccccc23)cc1)Nc1ccc(S(=O)(=O)Nc2ncccn2)cc1 , write its reported growth.
## Result 104

## Task Given the compound Cc1c(C(=O)/C=C/c2ccc(Cl)cc2)nnn1-c1ccc2oc(=O)ccc2c1 , write its reported growth.
## Result 94.6

## Task Given the compound O=c1c2ccccc2cc2n1CCN=C2c1ccccc1 , write its reported growth.
## Result 96.9

## Task Given the compound O=C1[C@H]2Cc3c([nH]c4ccccc34)[C@H](c3ccc(Br)cc3)N2C(=O)CN1C1CCN(CC2CCCCC2)CC1 , write its reported growth.
## Result 80.4

## Task Given the compound CN(C)CCCOc1ccc(C(=C(c2ccccc2)C2CCCC2)c2ccc(OCCCN(C)C)cc2)cc1 , write its reported growth.
## Result -94.5

###

tested on: LOX IMVI melanoma; experiment: NCI-60 one-dose screen, 48 h (100 = growth as untreated, 0 = no growth, -100 = all killed); details: 10 µM unless noted
About 83,000 compounds went through this panel and 20% of them were active in at least one assay; those are over-represented in the sample as a whole. Active and inactive are the calls of the source. Rule for the calls: active = growth percent below 10; inactive = the rest.
assay-endpoint: growth

Sample records with growth:
1) Nn1c(=O)n(-c2cccc(C(F)(F)F)c2)c(=O)c2cc(-c3ccc(F)cc3F)ccc21 : 0.654% (active)
2) O=c1nc(Nc2ccc([N+](=O)[O-])cc2O)sc2ccccc12 : 41.2% (inactive)
3) Cc1ccc(/C(N)=N/C(N)=N/c2nc3ccccc3s2)cc1 : -17% (active)
4) CCCCSC1=C(Cl)CN(c2ccc(Cl)cc2)C1=O : 62.4% (inactive)

## Task Given the compound Cc1ccc(Nc2nc(SC(C)C)nc(-c3ccccc3)c2C#N)cc1 , write its reported growth.
## Result 96.4% (inactive)

## Task Given the compound O=C1[C@H]2Cc3c([nH]c4ccccc34)[C@H](c3ccc(Cl)cc3)N2C(=O)CN1C1CCN(CC2CCCCC2)CC1 , write its reported growth.
## Result -79.5% (active)

## Task Given the compound O=c1c2ccccc2cc2n1CCN=C2c1ccccc1 , write its reported growth.
## Result 101% (inactive)

###

system: COLO 205 colon; assay: NCI-60 one-dose screen, 48 h (100 = growth as untreated, 0 = no growth, -100 = all killed); conditions: 10 µM unless noted
The panel holds about 83,000 compounds, 20% with a hit somewhere; the sample as a whole holds those more often.
Consider the following compounds and their measured growth readings.
# number only, unit % dropped from output

Sample records with growth:
1. O=C(CCCCCCNC(=O)C(O)(O)C(F)(F)F)Nc1ncc(-c2ccccc2)s1 : -73.3
2. O=c1oc2ccc(-c3ccc(F)cc3F)cc2c(=O)n1-c1ccc(Br)cc1F : 121
3. CN(C)CCCOc1ccc(C(=C(c2ccccc2)C2CCCC2)c2ccc(OCCCN(C)C)cc2)cc1 : -76.2

## Task Given the compound FC(F)(F)c1cc(Br)cc(-c2cc(-c3ccc4c(c3)OCCO4)[nH]n2)c1 , write its reported growth.
## Result -12.9

###

System: SK-MEL-5 melanoma
Assay: NCI-60 one-dose screen, 48 h (100 = growth as untreated, 0 = no growth, -100 = all killed)
Conditions: 10 µM unless noted
Method: Growth inhibition of the SK-MEL-5 human tumor cell line is measured as a screen for anti-cancer activity. Cells are grown in 96 well plates and exposed to the test compound for 48 hours. Compounds are tested at a single concentration, which is 10^-5 M for most compounds. The reported endpoint is percent growth (GI% or GIPRCNT), where numbers from 0 - 100% represent growth inhibition, and numbers from -100% - 0 represent cell death. For example, a value of 40 represents 60% growth inhibition. […]
This is part of a sample that, as a whole, favours compounds with a hit. Of some 83,000 tested, about 20% had one in any assay.
Consider the following compounds and their measured growth readings.
# number only, unit % dropped from output

Sample records with growth:
1) O=C(COc1ccc(/C=C2\C(=O)Nc3cc(Cl)ccc32)cc1)Nc1ccc(Cl)cc1 : 72.8
2) CN1c2ccccc2Sc2cc(/C=N/Nc3ccnc4cc(Cl)ccc34)ccc21 : 94.7
3) CC(O)c1cccc(/C(N)=N/C(N)=N/c2nc3ccccc3s2)c1 (stereo not given) : 83.4
4) COc1cc(C(=O)c2cc(C(C)=O)c3c(C)cccn23)cc(OC)c1OC : 97.1
5) Cc1ccc(S(=O)(=O)NCCCNc2nc(Nc3ccc(N4CCN(C)CC4)cc3)nc3ccsc23)cc1 : -84.1
6) CCCCN1C(=O)/C(=c2\sc3n(c2=O)C2C(NN=3)N(CC)C(=O)N2CC)c2cc(C)ccc21 (stereo not given) : 92.8

## Task Given the compound C[C@H](Nc1ncnc2ccc(-c3cnc(Cl)c(NS(C)(=O)=O)c3)cc12)c1ccccc1 , write its reported growth.
## Result -92.7

## Task Given the compound CC1(C)CC[C@]2(C(=O)NCCCCCCN(CCCN)CCCN)CC[C@]3(C)C(=CC[C@@H]4[C@@]5(C)CC[C@H](O)C(C)(C)[C@@H]5CC[C@]43C)[C@@H]2C1 , write its reported growth.
## Result 101

## Task Given the compound COc1cccc(N2CCN(C3=C(Cl)C(=O)c4ncccc4C3=O)CC2)c1 , write its reported growth.
## Result 97.3

## Task Given the compound C=C(C)[C@@H]1CC[C@]2(C(=O)N3CCN(C)CC3)CC[C@]3(C)[C@H](CC[C@@H]4[C@@]5(C)CC[C@H](OP(=O)(OCC)OCC)C(C)(C)[C@@H]5CC[C@]43C)[C@@H]12 , write its reported growth.
## Result 69.7

## Task Given the compound C#C[C@]1(O)CC[C@H]2[C@@H]3CC=C4c5sc(N6CCN(C)CC6)nc5CC[C@]4(C)[C@H]3CC[C@@]21C , write its reported growth.
## Result 38.5

## Task Given the compound O=C(CSc1cc[n+](CCCCO)c2ccccc12)n1ccc2ccccc21 , write its reported growth.
## Result 98.7

## Task Given the compound CN1CCN(c2ccc(Nc3nc(NCCNC(=O)c4ccc(F)cc4)c4sccc4n3)cc2)CC1 , write its reported growth.
## Result 25.2

## Task Given the compound CC1(C)CC[C@]23CC[C@]4(C)[C@H](CC[C@@H]5[C@@]6(C)CC[C@H](N)C(C)(C)[C@@H]6CC[C@]54C)[C@H]2[C@H]1OC3 , write its reported growth.
## Result 87.7

## Task Given the compound COc1ccc([C@@H]2C(=O)N(c3cc(OC)c(OC)c(OC)c3)[C@H]2c2ccc(OC)c(O)c2)cc1 , write its reported growth.
## Result -22.9

## Task Given the compound O=C(/C=C/c1cccc(F)c1)c1cccc(OCCCOc2cccc(C(=O)/C=C/c3cccc(F)c3)c2)c1 , write its reported growth.
## Result 99.4

## Task Given the compound O=c1c2cc(-c3ccc(F)cc3F)ccc2n(O)c(=O)n1-c1cccc(C(F)(F)F)c1 , write its reported growth.
## Result -59.7

## Task Given the compound O=C(CCCCCCNC(=O)c1csc(Br)n1)NO , write its reported growth.
## Result 17.7

## Task Given the compound O=C(CSc1nc2ccccc2c(=O)n1-c1ccccc1)N/N=C/c1ccc(Oc2ccc(Cl)cc2)cc1 , write its reported growth.
## Result 71.2

## Task Given the compound Cc1ccccc1N1CCN(C2=C(Cl)C(=O)c3ncccc3C2=O)CC1 , write its reported growth.
## Result 88.8

## Task Given the compound Cc1ccc(NC(=O)/C=C/c2ccc(OCCCOc3ccc4c(C)cc(=O)oc4c3)cc2)cc1 , write its reported growth.
## Result 76.9

## Task Given the compound COc1ccc(C2c3[nH]c4ccc(Cl)cc4c3CCN2c2oc(CO)nc2C#N)cc1 (stereo not given) , write its reported growth.
## Result 29.7

## Task Given the compound CCc1cc(OC(=O)N2CCC(N3CCCCC3)CC2)ccc1Nc1cc(-c2ccc(-n3cccn3)cc2)[nH]n1 , write its reported growth.
## Result 60.2

## Task Given the compound O=C(N/N=C\c1ccc(F)cc1)c1ccc2nc(-c3ccc(Br)cc3)[nH]c2c1 , write its reported growth.
## Result 56.3
